Tested on: TNK1
Experimental Setup: concentration: 1 μM, replicates: in singlicate; n = 1;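 further: KINOMEscan kinase panel screen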
Value Kind: %Inh (%)
Expressed in %, but write only the number.

A selection of reference data follows.
## Input I would be grateful if you could share the reported %Inh for NS(=O)(=O)c1cccc(-c2ccc3ncc(N4CCOCC4)nc3c2)c1 .
## Output 0

## Input I would be grateful if you could share the reported %Inh for COc1ccc(Nc2ncc(C#N)c(Nc3ccccc3C(N)=O)n2)cc1N1CCN(C)CC1.Cl .
## Output 100

## Input I would be grateful if you could share the reported %Inh for Cc1nnc(-c2ccc(C)c(-c3ccc(C(=O)Nc4ccc(NS(C)(=O)=O)cc4)cc3)c2)o1 .
## Output 0

## Input I would be grateful if you could share the reported %Inh for Cc1cn2c(=O)cc(N3CCOCC3)nc2n1Cc1cccc(Cl)c1Cl .
## Output 0

## Input I would be grateful if you could share the reported %Inh for O=C(c1ccc(-c2cc(-c3c[nH]nc3-c3ccccn3)ccn2)cc1)N1CCOCC1 .
## Output 0

## Input I would be grateful if you could share the reported %Inh for Cc1c2ccc(N(C)c3ccnc(Nc4cccc(S(N)(=O)=O)c4)n3)cc2nn1Cc1ccccc1.Cl.Cl .
## Output 62

More entries:
## Input I would be grateful if you could share the reported %Inh for O=C1NC(=O)C(N2CCc3ccccc32)=C1c1cccc(Cl)c1 .
## Output 0

## Input I would be grateful if you could share the reported %Inh for COc1ccc(CNC(=O)NC2CCN(c3ccnc(Nc4ccc(OC)cc4)n3)C2)cc1 (stereo not drawn) .
## Output 0

## Input I would be grateful if you could share the reported %Inh for Cc1cccc(-c2nc(Nc3ccc4ncsc4c3)c3ccccc3n2)n1 .
## Output 39

## Input I would be grateful if you could share the reported %Inh for CN1c2ccc(NCc3ccc(F)cc3)cc2-c2c(cnn2C)S1(=O)=O .
## Output 35

## Input I would be grateful if you could share the reported %Inh for Cl.Oc1cccc(Nc2ccnc3cc(-c4ccncc4)ccc23)c1 .
## Output 72

## Input I would be grateful if you could share the reported %Inh for CCCCCc1nc2c(N)ncnc2n1CCCCC .
## Output 19

## Input I would be grateful if you could share the reported %Inh for COc1ccc(COc2cc(-n3cnc4ccccc43)sc2C(N)=O)cc1 .
## Output 8

---

As shown below, each of these molecules has a reported %Inh value.
Tested on: ERK1
Construct: gene MAPK3
Experimental Setup: concentration: 1 μM, replicates: in singlicate; n = 1
Expressed in %, but write only the number.

A selection of reference data follows.
## Input I would be grateful if you could share the reported %Inh for O=C(NCCCN1CCOCC1)c1cccc(Nc2nccc(Nc3ccc(Oc4ccccc4)cc3)n2)c1 [GW663929] .
## Output 0

## Input I would be grateful if you could share the reported %Inh for O=C1Cc2cc(Nc3nc(NCc4cccc(S(=O)(=O)C(F)(F)F)c4)ncc3C(F)(F)F)ccc2N1 .
## Output 0

## Input I would be grateful if you could share the reported %Inh for O=c1cc(N2CCOCC2)nc2n(Cc3cccc(Cl)c3Cl)c(C3CC3)nn12 [GSK2358994] .
## Output 0

## Input I would be grateful if you could share the reported %Inh for Cc1c2ccc(N(C)c3ccnc(Nc4cccc(S(N)(=O)=O)c4)n3)cc2nn1Cc1ccccc1.Cl.Cl [GW787226] .
## Output 0

## Input I would be grateful if you could share the reported %Inh for COc1ccc(S(=O)(=O)NC2CCN(c3cc(C)nc(Nc4cccc(C#N)c4)n3)CC2)cc1.O=C(O)C(F)(F)F [GSK1653539] .
## Output 0

More entries:
## Input I would be grateful if you could share the reported %Inh for COc1cc2c(cc1OC[C@@H](O)CO)ncc1c3ccc(C#N)cc3[nH]c21 .
## Output 0

## Input I would be grateful if you could share the reported %Inh for Cn1cc(-c2ccc3c(c2)CCN3C(=O)Cc2ccccc2Cl)c2c(N)ncnc21 [GSK2608885] .
## Output 0

## Input I would be grateful if you could share the reported %Inh for O=C(Nc1cccc(-c2nn3ncccc3c2-c2ccnc(Nc3cccc(C(F)(F)F)c3)n2)c1)c1c(F)cccc1F [GSK299495] .
## Output 0

## Input I would be grateful if you could share the reported %Inh for CN1c2ccc(CNc3ccc(F)cc3)cc2-c2c(cnn2C)S1(=O)=O .
## Output 0

## Input I would be grateful if you could share the reported %Inh for NS(=O)(=O)CCc1cccc(Nc2nccc(-c3c(-c4cccc(NC(=O)c5c(F)cccc5F)c4)nn4ccccc34)n2)c1 [GSK336735] .
## Output 7
